EXPERIMENTAL_DETAILS: Hygroscopicity measurements (DVS sorption/desorption profiles)
Type: physicochemical
CONDITIONS_USED: Target % P/P0 70.0; 25° C.
Change in Mass (%) - ref, Desorption by entry:
Write down the numeric answer in % and omit the unit.

Example entries begin here.
MOLECULE | MEAS_VALUE
Cc1nc(-c2ccc(OCC(C)C)c(C#N)c2)sc1C(=O)O [Form V] | 14.03
Cc1nc(-c2ccc(OCC(C)C)c(C#N)c2)sc1C(=O)O [Form G of U.S. Pat. No. 6,225,474, reference compound] | 2.229
Cc1nc(-c2ccc(OCC(C)C)c(C#N)c2)sc1C(=O)O [Form XI] | 2.187

Query molecule follows.
Change in Mass (%) - ref, Desorption lookup needed for Cc1nc(-c2ccc(OCC(C)C)c(C#N)c2)sc1C(=O)O [Form IX] , thanks. 1.139

====

EXPERIMENTAL_DETAILS: Aqueous solubility measurements
Type: physicochemical
CONDITIONS_USED: media pH 1.2 (USP); 24 hours at 25° C.

COMPOUND | Visual solubility
Cc1nc(-c2ccc(OCC(C)C)c(C#N)c2)sc1C(=O)O [Form V] | few particles
Cc1nc(-c2ccc(OCC(C)C)c(C#N)c2)sc1C(=O)O [Form G of U.S. Pat. No. 6,225,474, reference compound] | few particles
Cc1nc(-c2ccc(OCC(C)C)c(C#N)c2)sc1C(=O)O [Form XI] | few particles

====

EXPERIMENTAL_DETAILS: Aqueous solubility measurements
Format: physicochemical
CONDITIONS_USED: FeSSIF, 25 °C, pH 5, fessif, thermodynamic from solid, media FeSSIF; 24 hours at 25° C.; read-out: HPLC solubility
READOUT: solubility at 24 h (µg/mL)
Write down the numeric answer in µg/mL and omit the unit.

solubility at 24 h lookup needed for Cc1nc(-c2ccc(OCC(C)C)c(C#N)c2)sc1C(=O)O [Form G of U.S. Pat. No. 6,225,474, reference compound] , thanks. 132

====

EXPERIMENTAL_DETAILS: Aqueous solubility measurements
Type: physicochemical
CONDITIONS_USED: final pH of saturated solution; media FaSSIF; 24 hours at 25° C.
READOUT: pH
The response must contain the number and no unit.

MOLECULE | READOUT | MEAS_VALUE
Cc1nc(-c2ccc(OCC(C)C)c(C#N)c2)sc1C(=O)O [Form XI] | pH | 6.336

pH lookup needed for Cc1nc(-c2ccc(OCC(C)C)c(C#N)c2)sc1C(=O)O [Form G of U.S. Pat. No. 6,225,474, reference compound] , thanks. 6.384

Request: Cc1nc(-c2ccc(OCC(C)C)c(C#N)c2)sc1C(=O)O [Form IX] 6.246

Request: Cc1nc(-c2ccc(OCC(C)C)c(C#N)c2)sc1C(=O)O [Form V] 6.384

====

EXPERIMENTAL_DETAILS: Aqueous solubility measurements
Format: physicochemical
CONDITIONS_USED: final pH of saturated solution; media pH 1.2 (USP); 24 hours at 25° C.
READOUT: pH
The response must contain the number and no unit.

COMPOUND | pH
Cc1nc(-c2ccc(OCC(C)C)c(C#N)c2)sc1C(=O)O [Form IX] | 1.242
Cc1nc(-c2ccc(OCC(C)C)c(C#N)c2)sc1C(=O)O [Form G of U.S. Pat. No. 6,225,474, reference compound] | 1.089
Cc1nc(-c2ccc(OCC(C)C)c(C#N)c2)sc1C(=O)O [Form V] | 1.157

Query compound follows.
pH lookup needed for Cc1nc(-c2ccc(OCC(C)C)c(C#N)c2)sc1C(=O)O [Form XI] , thanks. 1.132
